Documented Drug uptake across a set of molecules
tested on: Adipose tissue; test: Biodistribution in fat of mouse EMT6 tumor bearing BALB/c mouse at 10 to 20 uCi after 5 mins; type: ADME, organism-based; settings: in vivo
Response body: numeric value in % ID/g, unit text excluded.

Record excerpt, results attached:
Note to self: Drug uptake recorded for `COc1cc2c(cc1OC)CN(CCCCNC(=O)c1cc(I)ccc1OCC[18F])CC2` was 2.32

Entry `COc1cc2c(cc1OC)CN(CCCCNC(=O)c1cc(Br)ccc1OCC[18F])CC2` — recorded Drug uptake = 2.85

Drug uptake reading for `COc1cc2c(cc1OC)CN(CCCCNC(=O)c1cc(I)cc(OC)c1OCC[18F])CC2` : 4.13

New cases:
Given item `COc1cc2c(cc1OC)CN(CCCCNC(=O)c1cc(C)ccc1OCC[18F])CC2` , the value recorded as its Drug uptake is 1.95

----------
Measured Drug uptake accompanies every entry in the list below.
system: Bone; assay: Biodistribution in bone of mouse EMT6 tumor bearing BALB/c mouse at 10 to 20 uCi after 60 mins; assay type: ADME, organism-based, Bone element; conditions: in vivo, 1 h
Give the value; after it, write the unit.

get_value(item= `COc1cc2c(cc1OC)CN(CCCCNC(=O)c1cc(C)ccc1OCC[18F])CC2` , readout=Drug uptake) returns 0.55 % ID/g

For reference, reported Drug uptake for `COc1cc2c(cc1OC)CN(CCCCNC(=O)c1cc(I)cc(OC)c1OCC[18F])CC2` stands at 0.93 % ID/g

Input `COc1cc2c(cc1OC)CN(CCCCNC(=O)c1cc(Br)ccc1OCC[18F])CC2` . Output Drug uptake: 1.12 % ID/g

Here is another compound to look at.
Lab book: Drug uptake of `COc1cc2c(cc1OC)CN(CCCCNC(=O)c1cc(I)ccc1OCC[18F])CC2` noted as 0.99 % ID/g

----------
Drug uptake: recorded values
system: Bone; test: Biodistribution in bone of mouse EMT6 tumor bearing BALB/c mouse at 10 to 20 uCi after 30 mins; assay type: ADME, organism-based, Bone element; details: in vivo, 0.5 h
Could you give me the number in % ID/g? Just the number is fine.

// known answers, use as guide
Just so you know, measured Drug uptake for `COc1cc2c(cc1OC)CN(CCCCNC(=O)c1cc(I)cc(OC)c1OCC[18F])CC2` came out at 2.01

Form field Drug uptake, entry `COc1cc2c(cc1OC)CN(CCCCNC(=O)c1cc(I)ccc1OCC[18F])CC2` : 1.31

Documented Drug uptake of `COc1cc2c(cc1OC)CN(CCCCNC(=O)c1cc(C)ccc1OCC[18F])CC2` : 0.96

More entries:
// recorded Drug uptake for `COc1cc2c(cc1OC)CN(CCCCNC(=O)c1cc(Br)ccc1OCC[18F])CC2` : 1.17

----------
The entries below come with measured Drug uptake values attached.
system: Lung; test: Biodistribution in lung of mouse EMT6 tumor bearing BALB/c mouse at 10 to 20 uCi after 30 mins; format: ADME, organism-based; conditions: in vivo, 0.5 h

In the examples that follow, each entry is paired with its recorded Drug uptake.
Summary for this compound, `COc1cc2c(cc1OC)CN(CCCCNC(=O)c1cc(C)ccc1OCC[18F])CC2` : Drug uptake is 2.36 % ID/g

# Drug uptake (compound: `COc1cc2c(cc1OC)CN(CCCCNC(=O)c1cc(Br)ccc1OCC[18F])CC2` ) is 3.08 % ID/g

The compound identified as `COc1cc2c(cc1OC)CN(CCCCNC(=O)c1cc(I)cc(OC)c1OCC[18F])CC2` registered its Drug uptake at 3.75 % ID/g

Further cases:
The reported Drug uptake of the compound `COc1cc2c(cc1OC)CN(CCCCNC(=O)c1cc(I)ccc1OCC[18F])CC2` was 4.07 % ID/g
